target: OmcA (Shewanella oneidensis, UniProt Q8EG33); construct: recombinant soluble decaheme cytochrome expressed in S. oneidensis MR-1 from pBAD202/D-TOPO; stop codon after the gene removes V5 and His6 tags; C-terminus encoded by primer ...AIDGSTR N not altered (ends MEAHGN); assay: […] NMR titration; conditions: read-out: βd
Sequence (Q8EG33 entry or part of it): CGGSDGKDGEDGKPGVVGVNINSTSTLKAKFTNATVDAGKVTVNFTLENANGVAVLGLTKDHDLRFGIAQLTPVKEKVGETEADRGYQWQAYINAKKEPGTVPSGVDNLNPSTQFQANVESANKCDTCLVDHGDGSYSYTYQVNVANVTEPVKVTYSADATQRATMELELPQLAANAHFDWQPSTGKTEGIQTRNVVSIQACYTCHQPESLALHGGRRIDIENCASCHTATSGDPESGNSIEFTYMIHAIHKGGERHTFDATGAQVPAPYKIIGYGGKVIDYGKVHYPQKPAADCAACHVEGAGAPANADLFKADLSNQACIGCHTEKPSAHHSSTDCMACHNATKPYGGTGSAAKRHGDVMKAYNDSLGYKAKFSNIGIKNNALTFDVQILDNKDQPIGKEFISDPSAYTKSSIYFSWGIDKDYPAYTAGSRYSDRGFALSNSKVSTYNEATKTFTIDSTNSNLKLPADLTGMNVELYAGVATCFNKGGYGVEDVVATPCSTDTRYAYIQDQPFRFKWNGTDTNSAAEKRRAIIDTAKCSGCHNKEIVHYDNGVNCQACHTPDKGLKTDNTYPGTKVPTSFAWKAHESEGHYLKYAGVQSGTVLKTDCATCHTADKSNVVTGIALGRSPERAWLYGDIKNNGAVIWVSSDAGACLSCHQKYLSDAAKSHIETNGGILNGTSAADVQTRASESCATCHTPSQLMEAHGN
metric-name: pKd
Just the number, please; pKd means minus log10 of the concentration in mol/L.

// returns reported pKd for input Cc1cc2nc3c(=O)[nH]c(=O)nc-3n(C[C@H](O)[C@H](O)[C@H](O)COP(=O)(O)O)c2cc1C [FMN, Flavin mononucleotide]
4.54
